System: 786-0 complex spheroids with HUVEC/MSC, growth % test/control
Test: Anticancer human tumor 786-0 cell line growth inhibition [AhR];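 further: compound exposure lasted seven days before the read-out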
Conditions: second compound 0.1 µM; first compound 0.000949 µM; stronger effect = lower value
Excerpt: Multicellular complex tumor spheroid response to aryl hydrocarbon receptor antagonists in combination with a variety of drugs and investigational agents in selected tumor cell lines […] Compounds. […] If the clinical Cmax for an agent had not been determined, the highest concentration tested was 10 microM (Table 1). […]
The compounds listed here are annotated with their viability, T/C.
EXPERIMENTAL_READOUT: viability, T/C (%)

compound="CCc1c2c(nc3ccc(O)cc13)-c1cc3c(c(=O)n1C2)COC(=O)[C@]3(O)CC + Cc1cncc(-c2nc(NCCc3c[nH]c4ccccc34)c3ncn(C(C)C)c3n2)c1" experimental_readout="viability, T/C" recorded_number=106
compound="CC(C)CC(NC(=O)C(Cc1ccccc1)NC(=O)c1cnccn1)B(O)O (centres undefined) + Cc1ccccc1N=Nc1ccc(NC(=O)c2ccnn2C)c(C)c1" experimental_readout="viability, T/C" recorded_number=96.9
compound="CC(C)CC(NC(=O)C(Cc1ccccc1)NC(=O)c1cnccn1)B(O)O (centres undefined) + CC(CO)NC(=O)c1cc(-c2ccc(Cl)cc2)nn(-c2cnn(C)c2)c1=O" experimental_readout="viability, T/C" recorded_number=108
compound="Nc1ncn(C2CC(O)C(CO)S2)c(=O)n1 (centres undefined) + Cc1cncc(-c2nc(NCCc3c[nH]c4ccccc34)c3ncn(C(C)C)c3n2)c1" experimental_readout="viability, T/C" recorded_number=120
compound="CC(C)CC(NC(=O)C(Cc1ccccc1)NC(=O)c1cnccn1)B(O)O (centres undefined) + Cc1cncc(-c2nc(NCCc3c[nH]c4ccccc34)c3ncn(C(C)C)c3n2)c1" experimental_readout="viability, T/C" recorded_number=136
compound="Nc1ncn(C2CC(O)C(CO)S2)c(=O)n1 (centres undefined) + Cc1ccccc1N=Nc1ccc(NC(=O)c2ccnn2C)c(C)c1" experimental_readout="viability, T/C" recorded_number=102
compound="Nc1ncn(C2CC(O)C(CO)S2)c(=O)n1 (centres undefined) + CC(CO)NC(=O)c1cc(-c2ccc(Cl)cc2)nn(-c2cnn(C)c2)c1=O" experimental_readout="viability, T/C" recorded_number=102
compound="CCc1c2c(nc3ccc(O)cc13)-c1cc3c(c(=O)n1C2)COC(=O)[C@]3(O)CC + Cc1ccccc1N=Nc1ccc(NC(=O)c2ccnn2C)c(C)c1" experimental_readout="viability, T/C" recorded_number=106
compound="CCc1c2c(nc3ccc(O)cc13)-c1cc3c(c(=O)n1C2)COC(=O)[C@]3(O)CC + CC(CO)NC(=O)c1cc(-c2ccc(Cl)cc2)nn(-c2cnn(C)c2)c1=O" experimental_readout="viability, T/C" recorded_number=98.5

----------
The compounds listed here are annotated with their viability, T/C.
system: 786-0 complex spheroids with HUVEC/MSC, growth % test/control; assay: Anticancer human tumor 786-0 cell line growth inhibition [AhR]; conditions: second compound 1 µM; first compound 0.01 µM; stronger effect = lower value;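 further: compound exposure lasted seven days before the read-out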
EXPERIMENTAL_READOUT: viability, T/C

compound="CC1COCCN1c1cc(-c2ccnn2C)c2ccnc(-c3ccn[nH]3)c2n1 (centres undefined) + Cc1ccccc1N=Nc1ccc(NC(=O)c2ccnn2C)c(C)c1" experimental_readout="viability, T/C" result=104%
compound="Nc1ncn(C2CC(O)C(CO)O2)c(=O)n1 (centres undefined) + CC(CO)NC(=O)c1cc(-c2ccc(Cl)cc2)nn(-c2cnn(C)c2)c1=O" experimental_readout="viability, T/C" result=109%
compound="Cn1ncnc1C1c2n[nH]c(=O)c3cc(F)cc(c23)NC1c1ccc(F)cc1 (centres undefined) + Cc1cncc(-c2nc(NCCc3c[nH]c4ccccc34)c3ncn(C(C)C)c3n2)c1" experimental_readout="viability, T/C" result=99.7%
compound="Nc1ncn(C2CC(O)C(CO)O2)c(=O)n1 (centres undefined) + Cc1cncc(-c2nc(NCCc3c[nH]c4ccccc34)c3ncn(C(C)C)c3n2)c1" experimental_readout="viability, T/C" result=116%
compound="Cn1ncnc1C1c2n[nH]c(=O)c3cc(F)cc(c23)NC1c1ccc(F)cc1 (centres undefined) + CC(CO)NC(=O)c1cc(-c2ccc(Cl)cc2)nn(-c2cnn(C)c2)c1=O" experimental_readout="viability, T/C" result=110%
compound="Nc1ncn(C2CC(O)C(CO)O2)c(=O)n1 (centres undefined) + Cc1ccccc1N=Nc1ccc(NC(=O)c2ccnn2C)c(C)c1" experimental_readout="viability, T/C" result=112%
compound="CC1COCCN1c1cc(-c2ccnn2C)c2ccnc(-c3ccn[nH]3)c2n1 (centres undefined) + Cc1cncc(-c2nc(NCCc3c[nH]c4ccccc34)c3ncn(C(C)C)c3n2)c1" experimental_readout="viability, T/C" result=104%
compound="CC[C@@]1(O)C(=O)OCc2c1cc1n(c2=O)Cc2cc3c(CN(C)C)c(O)ccc3nc2-1 + Cc1cncc(-c2nc(NCCc3c[nH]c4ccccc34)c3ncn(C(C)C)c3n2)c1" experimental_readout="viability, T/C" result=108%
compound="Cn1ncnc1C1c2n[nH]c(=O)c3cc(F)cc(c23)NC1c1ccc(F)cc1 (centres undefined) + Cc1ccccc1N=Nc1ccc(NC(=O)c2ccnn2C)c(C)c1" experimental_readout="viability, T/C" result=117%

----------
system: 786-0 complex spheroids with HUVEC/MSC, growth % test/control; assay: Anticancer human tumor 786-0 cell line growth inhibition [AhR]; details: second compound 10 µM; first compound 0.00316 µM; active means viability on the fitted dose curve at most 10% of control; inactive means the rest;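 further: compound exposure lasted seven days before the read-out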
Classes used: true = active, false = inactive

compound="CC1COCCN1c1cc(-c2ccnn2C)c2ccnc(-c3ccn[nH]3)c2n1 (stereo unspecified) + Cc1ccccc1N=Nc1ccc(NC(=O)c2ccnn2C)c(C)c1" experimental_target="786-0 complex spheroids with HUVEC/MSC, growth % test/control" assigned_label=false
compound="CC[C@@]1(O)C(=O)OCc2c1cc1n(c2=O)Cc2cc3c(CN(C)C)c(O)ccc3nc2-1 + Cc1cncc(-c2nc(NCCc3c[nH]c4ccccc34)c3ncn(C(C)C)c3n2)c1" experimental_target="786-0 complex spheroids with HUVEC/MSC, growth % test/control" assigned_label=true
compound="Nc1ncn(C2CC(O)C(CO)O2)c(=O)n1 (stereo unspecified) + Cc1cncc(-c2nc(NCCc3c[nH]c4ccccc34)c3ncn(C(C)C)c3n2)c1" experimental_target="786-0 complex spheroids with HUVEC/MSC, growth % test/control" assigned_label=false
compound="CC[C@@]1(O)C(=O)OCc2c1cc1n(c2=O)Cc2cc3c(CN(C)C)c(O)ccc3nc2-1 + CC(CO)NC(=O)c1cc(-c2ccc(Cl)cc2)nn(-c2cnn(C)c2)c1=O" experimental_target="786-0 complex spheroids with HUVEC/MSC, growth % test/control" assigned_label=false
compound="Nc1ncn(C2CC(O)C(CO)O2)c(=O)n1 (stereo unspecified) + CC(CO)NC(=O)c1cc(-c2ccc(Cl)cc2)nn(-c2cnn(C)c2)c1=O" experimental_target="786-0 complex spheroids with HUVEC/MSC, growth % test/control" assigned_label=false
compound="Cn1ncnc1C1c2n[nH]c(=O)c3cc(F)cc(c23)NC1c1ccc(F)cc1 (stereo unspecified) + Cc1cncc(-c2nc(NCCc3c[nH]c4ccccc34)c3ncn(C(C)C)c3n2)c1" experimental_target="786-0 complex spheroids with HUVEC/MSC, growth % test/control" assigned_label=false

----------
Tested on: 786-0 complex spheroids with HUVEC/MSC, growth % test/control
Experiment: Anticancer human tumor 786-0 cell line growth inhibition [AhR]; active means viability on the fitted dose curve at most 10% of control; inactive means the rest;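 further: compound exposure lasted seven days before the read-out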
Details: second compound 10 µM; first compound 0.3 µM
Excerpt: Multicellular complex tumor spheroid response to aryl hydrocarbon receptor antagonists in combination with a variety of drugs and investigational agents in selected tumor cell lines […] Compounds. […] If the clinical Cmax for an agent had not been determined, the highest concentration tested was 10 microM (Table 1). […]
Classes used: 1 (yes) (active), 0 (no) (inactive)

compound="O=C(C=Cn1cnc(-c2cc(C(F)(F)F)cc(C(F)(F)F)c2)n1)NNc1cnccn1 + Cc1cncc(-c2nc(NCCc3c[nH]c4ccccc34)c3ncn(C(C)C)c3n2)c1" assigned_label="1 (yes)"
compound="CCN(c1cc(-c2ccc(CN3CCOCC3)cc2)cc(C(=O)NCc2c(C)cc(C)[nH]c2=O)c1C)C1CCOCC1 + Cc1ccccc1N=Nc1ccc(NC(=O)c2ccnn2C)c(C)c1" assigned_label="0 (no)"
compound="CC(C)CC(NC(=O)C(Cc1ccccc1)NC(=O)c1cnccn1)B(O)O (stereo unspecified) + Cc1cncc(-c2nc(NCCc3c[nH]c4ccccc34)c3ncn(C(C)C)c3n2)c1" assigned_label="1 (yes)"
compound="CCN(c1cc(-c2ccc(CN3CCOCC3)cc2)cc(C(=O)NCc2c(C)cc(C)[nH]c2=O)c1C)C1CCOCC1 + CC(CO)NC(=O)c1cc(-c2ccc(Cl)cc2)nn(-c2cnn(C)c2)c1=O" assigned_label="0 (no)"
compound="O=C(C=Cn1cnc(-c2cc(C(F)(F)F)cc(C(F)(F)F)c2)n1)NNc1cnccn1 + Cc1ccccc1N=Nc1ccc(NC(=O)c2ccnn2C)c(C)c1" assigned_label="0 (no)"
compound="Nc1ncn(C2CC(O)C(CO)S2)c(=O)n1 (stereo unspecified) + Cc1cncc(-c2nc(NCCc3c[nH]c4ccccc34)c3ncn(C(C)C)c3n2)c1" assigned_label="0 (no)"
